- test.method.notes: Antagonist activity at CRTH2 in human eosinophil assessed as effect of cellular shape change by EOS assay
pIC50: −log10 of the molar value.
measured.endpoint: pIC50

Examples from the recorded data:
CN(C(=O)C1(c2ccc(F)cc2)CCCC1)[C@@H]1CCc2c(CC(=O)O)c3cccnc3n2C1 = 8.47
CN(C(=O)C1(c2ccc(F)cc2)CC1)[C@@H]1CCc2c(CC(=O)O)c3cccnc3n2C1 = 8.51
CN([C@@H]1CCc2c(CC(=O)O)c3cccnc3n2C1)S(=O)(=O)c1ccc(F)cc1 = 8.15
CN(C(=O)C(C)(C)c1ccc(F)cc1)[C@@H]1CCc2c(CC(=O)O)c3cccnc3n2C1 = 8.64
CN(C(=O)C1(c2ccc(F)cc2)CCC1)[C@@H]1CCc2c(CC(=O)O)c3cccnc3n2C1 = 8.92
CN(C(=O)C1(c2ccc(F)cc2)CC1(C)C)[C@@H]1CCc2c(CC(=O)O)c3cccnc3n2C1 (stereo partly drawn) = 8.62

I. CN([C@@H]1CCc2c(CC(=O)O)c3ccc(-c4ccc(F)cc4)nc3n2C1)S(=O)(=O)c1ccc(F)cc1
II. C[C@@H](C(=O)N(C)[C@@H]1CCc2c(CC(=O)O)c3cccnc3n2C1)c1ccc(F)cc1
Data request: So which one has the bigger pIC50 here, I or II ? Answer = label.
Data returned: II
(II: 8.92, I: 7.80)
